Biological target: Histone deacetylase (HDAC1 and HDAC2) (Homo sapiens, UniProt Q13547+Q92769)
Test: Inhibitory activity against histone deacetylase (HDAC1 and HDAC2) isolated from K562 erythroleukemia cells
Assay type: cell-based
Reported Property: IC50 (nM)

The examples below pair each entry with its known result.
(Q) Give reported IC50 value for CNC(=O)C(=O)CCCCCCc1cnc(-c2ccccc2)o1
(A) 21

(Q) Give reported IC50 value for COc1cccc(OC)c1-c1csc(CCCCCCC(=O)NO)n1
(A) 4.3

(Q) Give reported IC50 value for COc1ccc(-c2cnc(CCCCCCC(=O)NO)o2)cc1
(A) 2.1

a: O=C(CCCCCCc1cnc(-c2ccc(F)cc2)o1)NO
b: O=C(CCCCCCc1cnc(-c2ccc(OC(F)(F)F)cc2)o1)NO
(Q) I'm curious whether a or b has the smaller IC50 number. Which is it? Respond with the label that goes with your answer.
(A) a
